The measurements presented in this section are drawn from patent US20100120858A1.

Where a name gives a salt, the structure may show the parent alone.
Entries and their melting point values follow.

Solved entries (count: 10):
Query (compound): Cc1ccc(Oc2ncccc2OC[C@H]2CCCNC2)cc1C.O=C(O)/C=C/C(=O)O ; field requested: melting point
169 to 170 °C

Consider the compound Fc1cc(Oc2ncccc2OC[C@H]2CCCNC2)ccc1Cl.O=C(O)/C=C/C(=O)O and give its measured melting point.
150 to 151 °C

Can you look up the measured melting point of Fc1ccc(Oc2ncccc2OC(c2ccccc2)C2CCCNC2)cc1 (single isomer, unassigned; stereoisomer b) (as salt: fumaric acid salt) [Example 89] for me?
150 to 152 °C

Field request: melting point | item: CC(C)Oc1ccccc1Oc1ncccc1OC[C@H]1CCCNC1.O=C(O)/C=C/C(=O)O
129 to 134 °C (dec.)

Tell me the measured melting point of CC(C)COc1ccccc1OCC1CCCNC1.Cl (stereo not drawn) , please.
162 °C

Look up melting point: CC(C)c1ccccc1Oc1ncccc1OC[C@H]1CCCNC1.O=C(O)/C=C/C(=O)O
112 to 114 °C (dec.)

melting point for Cl.c1ccc(Oc2ccccc2OC[C@H]2CCCNC2)cc1 ?
134 to 136 °C

What measured melting point goes with CCOc1ncccc1OC(c1ccccc1)C1CCCNC1 (single isomer, unassigned; stereoisomer b) (as salt: fumaric acid salt) [Example 91] ?
58 to 68 °C (dec.)

Bench note: what melting point did Fc1ccc(Oc2ncccc2OC(c2ccccc2)C2CCCNC2)cc1 (single isomer, unassigned; stereoisomer a) (as salt: fumaric acid salt) (hydrate or solvate) [Example 88] show?
191 to 192 °C

Form field: reported melting point of O=C(O)/C=C/C(=O)O.c1ccc(CCOc2ncccc2OC[C@H]2CCCNC2)cc1
146 to 148 °C (dec.)

New cases:
Recorded melting point of FC(F)(F)Oc1cccc(Oc2ncccc2OC[C@H]2CCCNC2)c1.O=C(O)/C=C/C(=O)O , please.
144 to 146 °C

Data request, read-out melting point, for CCOc1ccccc1OC(c1ccccc1)[C@H]1CCCNC1 (mixture of isomers) (as salt: fumaric acid salt) (hydrate or solvate)
82 to 88 °C (dec.)

Bench note: what melting point did Cl.c1ccc(OC2CCCCC2)c(OC[C@H]2CCCNC2)c1 show?
149 to 150 °C

Which melting point is listed for Cc1cccc(Oc2ncccc2OC[C@H]2CCCNC2)c1.O=C(O)/C=C/C(=O)O ?
130 to 132 °C

Entry under review: CCOc1ncccc1OC(c1ccccc1)C1CCCNC1 (single isomer, unassigned; stereoisomer a) (as salt: fumaric acid salt) [Example 90] . Reported melting point?
159 to 161 °C

// query melting point value for entry Cc1ccccc1Oc1ncccc1OC[C@H]1CCCNC1.O=C(O)/C=C/C(=O)O
165 to 167 °C (dec.)

Which melting point value belongs to Fc1ccc(OC[C@H]2CCCNC2)c(Oc2ccccc2)c1.O=C(O)/C=C/C(=O)O ?
128 to 130 °C

Value lookup for melting point; key = Cl.c1ccc(COc2ccccc2OC[C@H]2CCCNC2)cc1
137 to 140 °C (dec.)

====

System: capsaicin-induced mechanical allodynia
Assay: Capsaicin-induced mechanical allodynia rat model
Format: in vivo
Settings: sc, male Sprague-Dawley rats, single subcutaneous 10 mg/kg dose on Day 7, measurement 1 hour post dose, mean of eight animals
Experimental: On Day 0, male Sprague-Dawley rats (about 150 g each) in the dark cycle were placed in suspended wire-bottom cages and allowed to acclimate for 0.5 hour in a darkened, quiet room. The Day 0 paw withdrawal threshold (PWT) was determined on the left hind paw by Von Frey hair assessment using the Dixon up and down method. […] On Day 6, the PWT of the left hind paw (contralateral from the injected paw) was determined for each animal. […]
Counter-ions that a name gives are not always drawn.
# label = Y if inhibition in vivo at 10 mg/kg >= 20% else N

Known results for molecules:
Say whether Cc1ccc(OC[C@H]2CCCNC2)c(Oc2ccc(Cl)cc2F)n1 shows inhibition in vivo at 10 mg/kg of 20% or more.
Y

Is the recorded value of inhibition in vivo at 10 mg/kg equal to or greater than 20% for this molecule? Cc1ccc(OC[C@H]2CCCNC2)c(Oc2c(F)cc(Cl)cc2F)n1 [Example 45, hydrochloride]
N

Does inhibition in vivo at 10 mg/kg meet or surpass 20% for Cc1ccc(OC[C@H]2CCCNC2)c(Oc2cc(F)c(F)cc2F)n1 ?
N

Hi team, for Cc1ccc(OC[C@H]2CCCNC2)c(Oc2c(F)cc(F)cc2F)n1 [Example 44, hydrochloride] , is the recorded inhibition in vivo at 10 mg/kg at or above 20%?
N

Identify whether the reported inhibition in vivo at 10 mg/kg of the following molecule is 20% or greater: Cc1ccc(OC[C@H]2CCCNC2)c(Oc2ccc(F)cc2F)n1
Y

***
Entry COc1ccc(Oc2nc(C)ccc2OC[C@H]2CCCNC2)cc1 : is its inhibition in vivo at 10 mg/kg no less than 20%?
N

Is reported inhibition in vivo at 10 mg/kg greater than or equal to 20% here: COc1cc(Cl)ccc1Oc1nc(C)ccc1OC[C@H]1CCCNC1
Y

Please check the record COc1cc(C)ccc1Oc1nc(C)ccc1OC[C@H]1CCCNC1 and state if its inhibition in vivo at 10 mg/kg is at or above 20%.
Y

Determine whether measured inhibition in vivo at 10 mg/kg meets or exceeds 20% for CCc1ccc(Oc2nc(C)ccc2OC[C@H]2CCCNC2)c(OC)c1
N

Check this molecule for inhibition in vivo at 10 mg/kg at or above 20%: Cc1ccc(Oc2nc(C)ccc2OC[C@H]2CCCNC2)c(Cl)c1
Y

Quick check, inhibition in vivo at 10 mg/kg >= 20%? Cc1ccc(Oc2nc(C)ccc2OC[C@H]2CCCNC2)cc1
Y

====

Entries with reported pKi on human norepinephrine transporter (Homo sapiens)
Sequence (P23975 whole entry): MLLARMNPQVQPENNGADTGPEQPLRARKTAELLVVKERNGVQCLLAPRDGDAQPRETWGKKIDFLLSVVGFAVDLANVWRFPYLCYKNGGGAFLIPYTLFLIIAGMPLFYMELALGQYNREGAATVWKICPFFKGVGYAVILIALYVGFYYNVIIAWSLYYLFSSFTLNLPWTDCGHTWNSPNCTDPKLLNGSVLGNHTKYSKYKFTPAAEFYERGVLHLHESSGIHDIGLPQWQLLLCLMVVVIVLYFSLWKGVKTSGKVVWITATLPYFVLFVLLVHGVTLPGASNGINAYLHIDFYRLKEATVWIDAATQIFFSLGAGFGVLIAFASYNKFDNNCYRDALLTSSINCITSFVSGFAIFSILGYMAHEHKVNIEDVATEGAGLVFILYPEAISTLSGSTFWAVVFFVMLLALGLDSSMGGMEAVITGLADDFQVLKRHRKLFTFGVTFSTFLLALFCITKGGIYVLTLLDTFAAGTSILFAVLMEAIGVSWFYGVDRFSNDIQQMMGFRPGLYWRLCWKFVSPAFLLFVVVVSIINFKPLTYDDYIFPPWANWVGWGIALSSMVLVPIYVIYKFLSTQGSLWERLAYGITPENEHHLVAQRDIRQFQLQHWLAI
Structures can show the parent of a compound that is named as a salt.
In plain terms, pKi is the concentration in mol/L turned into minus its base-10 logarithm.

The cases that follow already have their pKi on record.
Tell me the measured pKi of Clc1ccc(Oc2ncccc2OC[C@H]2CCCNC2)cc1Cl , please.
7.77

Fill in the blank: the reported pKi of Cc1ccc(Oc2nc(C)ccc2OC[C@H]2CCCNC2)cc1 is ____.
7.99

Quick one: pKi for N#Cc1ccc(Oc2ncccc2OC[C@H]2CCCNC2)cc1 ?
7.24

// returns reported pKi for input Cl.c1ccc(OC2CCCCC2)c(OC[C@H]2CCCNC2)c1 [Example 101, hydrochloride]
7.70

***
Consider the compound shown here: COCCOc1ccccc1OC(C)(C)[C@H]1CCCNC1 What is its recorded pKi?
7.42

Item COc1cccc(F)c1OC[C@H]1CCCNC1 has what recorded pKi?
7.35

Reported pKi for Fc1ccc(Oc2ncccc2OC[C@H]2CCCNC2)c(F)c1 : what is it?
8.52

May I ask what pKi has been recorded for COCCOc1ccccc1O[C@@H](C)[C@H]1CCCNC1 [Example 113, hydrochloride] ?
7.77

What measured pKi goes with Cc1ccc(OC[C@H]2CCCNC2)c(Oc2c(F)ccc(Cl)c2F)n1 [Example 50, hydrochloride] ?
8.26

====

Each entry below carries its reported pKi.
Molecular target: human serotonin transporter (Homo sapiens, UniProt P31645)
Sequence (P31645 whole entry): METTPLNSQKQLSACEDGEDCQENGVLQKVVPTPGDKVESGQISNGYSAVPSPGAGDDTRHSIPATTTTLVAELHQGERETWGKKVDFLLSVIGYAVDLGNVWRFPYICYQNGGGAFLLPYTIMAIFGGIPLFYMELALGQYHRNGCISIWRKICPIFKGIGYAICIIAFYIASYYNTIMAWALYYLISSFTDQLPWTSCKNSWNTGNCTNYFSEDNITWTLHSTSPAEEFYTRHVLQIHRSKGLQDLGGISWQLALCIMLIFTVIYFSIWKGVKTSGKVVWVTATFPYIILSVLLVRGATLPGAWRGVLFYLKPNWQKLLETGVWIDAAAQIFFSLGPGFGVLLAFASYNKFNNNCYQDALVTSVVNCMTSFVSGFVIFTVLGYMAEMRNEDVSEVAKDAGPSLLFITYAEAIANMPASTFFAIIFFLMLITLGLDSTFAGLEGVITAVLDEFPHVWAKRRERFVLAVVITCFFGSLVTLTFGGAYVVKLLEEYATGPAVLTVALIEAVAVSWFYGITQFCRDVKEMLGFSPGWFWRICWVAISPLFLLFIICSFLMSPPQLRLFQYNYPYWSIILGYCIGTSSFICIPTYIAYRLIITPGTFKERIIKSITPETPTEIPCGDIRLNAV
Just the number, please; pKi means minus log10 of the concentration in mol/L.

I am curious: what pKi value has been reported for COc1cc(F)ccc1Oc1cc(C(F)(F)F)ccc1OC[C@H]1CCCNC1 ?
7.66

---
Name the recorded pKi for CCOc1ccccc1O[C@@H](c1ccccn1)[C@H]1CCCNC1 .
5.43

Query: pKi; subject: Cc1ccc(OC[C@H]2CCCNC2)c(Oc2cccc(Cl)c2)n1
6.54

====

human serotonin transporter (Homo sapiens, UniProt P31645) pKi data
Expect pKi as a plain number equal to -log10 of the molar concentration.

# example entries with known answers
Test system human serotonin transporter (Homo sapiens, UniProt P31645); read-out pKi; what value for Fc1ccc(Oc2ncccc2OC[C@H]2CCCNC2)c(F)c1 ?
5.57

Request body: readout pKi, system human serotonin transporter (Homo sapiens, UniProt P31645), query COc1ccccc1Oc1nc(C)ccc1OC[C@H]1CCCNC1 . Return the value.
5.92

Please provide the recorded pKi for Cc1ccc(Oc2ncccc2OC[C@H]2CCCNC2)cc1C.O=C(O)/C=C/C(=O)O , tested on human serotonin transporter (Homo sapiens, UniProt P31645).
5.66

Next molecule, please.
Observed pKi on human serotonin transporter (Homo sapiens, UniProt P31645) for CCOc1cccc(F)c1OC[C@H]1CCCNC1 , please.
5.55

====

Molecular target: human serotonin transporter (Homo sapiens)
Counter-ions that a name gives are not always drawn.
Recorded Metric: Ki (µM)
Kindly provide the numeric value in µM only, without the unit symbol.

GET /values?readout=Ki&item= Cc1ccc(OC[C@H]2CCCNC2)c(Oc2c(F)cccc2F)n1 [Example 42, hydrochloride]
0.11

# Ki lookup, item COc1cccc(F)c1O[C@@H](c1ccccn1)[C@H]1CCCNC1 [Example 115]
5.02

Consider the additional compound presented here.
Look at this compound and give its reported Ki. CC(C)CCOc1ccccc1O[C@@H](C)[C@H]1CCCNC1 [Example 112]
0.79
